Origin of values: the supplement of paper PMC8728848

Would you kindly list glycan array binding signal (z-score) for each of these binders?
target: Gal(a1-2)Gal; assay: glycan array binding signal (z-score within array); higher = stronger binding; conditions: glycan notation: IUPAC condensed, linker removed
Many of the other results were omitted from the sample, so the strongest signals are more common in it than they were.
Answers are plain numbers.

Sample answers from the record:
binder: Clone730PsrP (Streptococcus pneumoniae) (protein) MDHHHHHHHHHHASENLYFQGAMVVGSQTAAATEATAKKVEEDRKKPASDYVASVTNVNLQSYAKRRKRSVDSIEQLLASIKNAAVFSGNTIVNGAPAINASLNIAKSETKVYTGEGVDSVYRVPIYYKLKVTNDGSKLTFTYTVTYVNPKTNDLGNISSMRPGYSIYNSGTSTQTMLTLGSDLGKPSGVKNYITDKNGRQVLSYNTSTMTTQGSGYTWGNGAQMNGFFAKKGYGLTSSWTVPITGTDTSFTFTPYAARTDRIGINYFNGGGKVVESSTT
glycan array binding signal (z-score): -0.461

binder: LngA (Escherichia coli) (protein) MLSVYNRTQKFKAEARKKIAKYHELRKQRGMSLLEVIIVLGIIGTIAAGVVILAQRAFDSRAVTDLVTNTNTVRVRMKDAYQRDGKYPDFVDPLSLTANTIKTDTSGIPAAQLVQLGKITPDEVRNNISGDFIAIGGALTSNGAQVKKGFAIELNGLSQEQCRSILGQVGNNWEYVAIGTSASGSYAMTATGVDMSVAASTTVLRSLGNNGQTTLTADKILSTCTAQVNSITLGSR
glycan array binding signal (z-score): 0.247

Looking for the measured glycan array binding signal (z-score) of PA-IL (Pseudomonas aeruginosa) (protein) AWKGEVLANNEAGQVTSIIYNPGDVITIVAAGWASYGPTQKWGPQGDREHPDQGLICHDAFCGALVMKIGNSGTIPVNTGLFRWVAPNNVQGAITLIYNDVPGTYGNNSGSFSVNIGKDQS , can you help? 4.77
